B1: VH:VL chains; a variant is named by its letters at X, in order (parent)
chain 1: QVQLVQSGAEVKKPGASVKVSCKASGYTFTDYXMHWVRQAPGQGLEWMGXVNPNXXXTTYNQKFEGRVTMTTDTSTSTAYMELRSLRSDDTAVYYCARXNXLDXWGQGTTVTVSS
chain 2: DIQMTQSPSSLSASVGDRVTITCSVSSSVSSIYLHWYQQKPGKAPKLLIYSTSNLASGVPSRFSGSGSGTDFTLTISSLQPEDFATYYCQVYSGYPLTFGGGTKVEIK

Variants of: B1
Experiment: yeast display scFab, FACS + sequencing
property_measured: non-specific binding call

Example results:
VTTRADVA
no binding
FRAGGAGV
binds
YRGAGAVY
binds
VEGGGDWA
no binding
YKARGSLV
binds
VETGGAVA
no binding
VRAKGAGY
binds
YKRGSAWV
binds
YEKGGDVD
no binding
YKRGSDGA
binds

response.value for SAEGDAAD (field: non-specific binding call) = no binding

The reported non-specific binding call of the variant YRAAGSWS was binds

Kindly note the recorded non-specific binding call for VTTKSSSA , which is no binding

Lab note: measured non-specific binding call of VATGSSGA was no binding

Query VRGKGAWD yields non-specific binding call of binds

non-specific binding call for DAKEGDGV is no binding
